Taken from patent US6900200B2.

In what follows, each item is paired with its pIC50 for human vasopressin V1a receptor subtype (Homo sapiens, UniProt P37288).
Please report pIC50 as the negative decimal logarithm of the molar concentration, giving only the number.

Prompt line: Could you share which pIC50 value was measured for Cc1ccc(-c2ccc(C(=O)N3Cc4ccc(C(=O)N(C)CC(O)CO)n4Cc4ccccc43)cc2)c2ccccc12 (stereo not drawn) ?
Response line: 6.86

Prompt line: Queued: Cc1cc(C(=O)N2Cc3ccc(C(=O)N(C)CC4COC(=O)O4)n3Cc3ccccc32)ccc1-c1ccccc1C(F)(F)F (stereo not drawn)
Response line: 5.86

Prompt line: Queued: CC(=O)OCC(CN(C)C(=O)c1ccc2n1Cc1ccccc1N(C(=O)c1ccc(-c3ccccc3C(F)(F)F)c(C)c1)C2)OC(C)=O (stereo not drawn)
Response line: 5.92

Prompt line: Queued: Cc1cc(C(=O)N2Cc3ccc(C(=O)N(C)CC(O)CO)n3Cc3ccccc32)ccc1-c1ccccc1C(F)(F)F (stereo not drawn)
Response line: 6.10

Prompt line: Queued: COc1cc(C(=O)N2Cc3ccc(C(=O)N(C)CC(O)CN(C)C)n3Cc3ccccc32)ccc1-c1ccccc1C(F)(F)F (stereo not drawn)
Response line: 6.64

Prompt line: Queued: COc1cc(C(=O)N2Cc3ccc(C(=O)N(C)C[C@@H](O)[C@H](O)[C@H](O)[C@@H](O)CO)n3Cc3ccccc32)ccc1-c1ccccc1C(F)(F)F (stereo in doubt)
Response line: 5.97
